# Experimental Details: Clearance in rat at 1.5 mg/kg, iv
# Format: ADME, organism-based
# Design: dose 1.5 mg/kg, route intravenous
# Measurement Parameters: in vivo
Quantity Measured: clearance

Exam item: Which clearance value is on record for "Cn1c(=O)c2c(nc(N3CCC[C@@H](N)C3)n2Cc2ccccc2Cl)c2cc(C(=O)O)ccc21" ?
Marked response: 132 mL/min/kg

* * *

What AUC was measured for each of the following?
# Experimental Details: AUC in rat at 1 mg/kg, iv
# Format: ADME, organism-based
# Parameters: dose 1 mg/kg, route intravenous
# Measurement Parameters: plasma
Hi! Could you send only the number? It should be in ng·h/mL, unit omitted.

Exam item: Which AUC value is on record for "Cn1c(=O)c2c(nc(N3CCC[C@@H](N)C3)n2Cc2cc(F)ccc2Cl)c2ccc(C(=O)O)cc21" ?
Marked response: 99.9

Exam item: Next molecule up: "Cn1c(=O)c2c(nc(N3CCC[C@@H](N)C3)n2Cc2cc(F)ccc2Cl)c2cc(C(=O)O)ccc21"
Marked response: 75.3

* * *

# Experimental Details: Volume of distribution at steady state in rat at 1.5 mg/kg, iv
# Type: ADME, organism-based
# Design: dose 1.5 mg/kg, route intravenous
# Measurement Parameters: in vivo, read-out: Vdss
Quantity Measured: Vd (L/kg)
Hi! Could you send only the number? It should be in L/kg, unit omitted.

Exam item: Which Vd value is on record for "Cn1c(=O)c2c(nc(N3CCC[C@@H](N)C3)n2Cc2ccccc2Cl)c2cc(C(=O)O)ccc21" ?
Marked response: 2.9

* * *

# Experimental Details: Half life in rat at 3 mg/kg, iv
# Type: ADME, organism-based
# Design: dose 3 mg/kg, route intravenous
# Measurement Parameters: in vivo
Quantity Measured: half-life (min)
Hi! Could you send only the number? It should be in min, unit omitted.

Exam item: Which half-life value is on record for "Cn1c(=O)c2c(nc(N3CCC[C@@H](N)C3)n2Cc2ccccc2Cl)c2ccc(C(=O)O)cc21" ?
Marked response: 36

* * *

What solubility was measured for each of the following?
# Experimental Details: Solubility of the compound at pH 5.5
# Format: physicochemical
# Measurement Parameters: buffer
Hi! Could you send only the number? It should be in µg/mL, unit omitted.

Exam item: Which solubility value is on record for "Cc1oc(=O)oc1COC(=O)c1ccc2c(c1)c1nc(N3CCC[C@@H](N)C3)n(Cc3ccccc3Cl)c1c(=O)n2C.Cl" ?
Marked response: 3

Exam item: Next compound up: "Cc1oc(=O)oc1COC(=O)c1ccc2c(c1)c1nc(N3CCC[C@@H](N)C3)n(Cc3cc(F)ccc3Cl)c1c(=O)n2C.Cl"
Marked response: 2

Exam item: Next compound up: "Cc1oc(=O)oc1COC(=O)c1ccc2c3nc(N4CCC[C@@H](N)C4)n(Cc4cc(F)ccc4Cl)c3c(=O)n(C)c2c1.Cl"
Marked response: 1

Exam item: Next compound up: "Cc1oc(=O)oc1COC(=O)c1ccc2c3nc(N4CCC[C@@H](N)C4)n(Cc4ccccc4Cl)c3c(=O)n(C)c2c1.Cl"
Marked response: 2

* * *

# Experimental Details: Clearance in rat at 3 mg/kg, iv
# Type: ADME, organism-based
# Set-up: dose 3 mg/kg, route intravenous
# Measurement Parameters: in vivo
Quantity Measured: clearance (mL/min/kg)
Hi! Could you send only the number? It should be in mL/min/kg, unit omitted.

Exam item: Which clearance value is on record for "Cn1c(=O)c2c(nc(N3CCC[C@@H](N)C3)n2Cc2ccccc2Cl)c2ccc(C(=O)O)cc21" ?
Marked response: 181

* * *

# Tested on: Liver microsome
# Experimental Details: Clearance in human liver microsomes assessed per mg protein
What CLH was measured for each of the following?

Exam item: Which CLH value is on record for "Cn1c(=O)c2c(nc(N3CCC[C@@H](N)C3)n2Cc2ccccc2Cl)c2ccc(C(=O)O)cc21" ?
Marked response: < 10 µL/min/mg

Exam item: Next molecule up: "Cn1c(=O)c2c(nc(N3CCC[C@@H](N)C3)n2Cc2cc(F)ccc2Cl)c2cc(C(=O)O)ccc21"
Marked response: < 10 µL/min/mg

Exam item: Next molecule up: "Cn1c(=O)c2c(nc(N3CCC[C@@H](N)C3)n2Cc2ccccc2Cl)c2cc(C(=O)O)ccc21"
Marked response: < 10 µL/min/mg

* * *

# Experimental Details: Solubility of the compound at pH 2.5
# Format: physicochemical
# Measurement Parameters: buffer
Quantity Measured: solubility
Record the result as number plus unit.

Exam item: Which solubility value is on record for "Cc1oc(=O)oc1COC(=O)c1ccc2c(c1)c1nc(N3CCC[C@@H](N)C3)n(Cc3cc(F)ccc3Cl)c1c(=O)n2C.Cl" ?
Marked response: 25 µg/mL

Exam item: Next compound up: "Cc1oc(=O)oc1COC(=O)c1ccc2c(c1)c1nc(N3CCC[C@@H](N)C3)n(Cc3ccccc3Cl)c1c(=O)n2C.Cl"
Marked response: 210 µg/mL

Exam item: Next compound up: "Cc1oc(=O)oc1COC(=O)c1ccc2c3nc(N4CCC[C@@H](N)C4)n(Cc4ccccc4Cl)c3c(=O)n(C)c2c1.Cl"
Marked response: 54 µg/mL

Exam item: Next compound up: "Cc1oc(=O)oc1COC(=O)c1ccc2c3nc(N4CCC[C@@H](N)C4)n(Cc4cc(F)ccc4Cl)c3c(=O)n(C)c2c1.Cl"
Marked response: 47 µg/mL

* * *

What remaining at 0.5 h, 1 µM was measured for each of the following?
# Experimental Details: Drug metabolism in human serum assessed as compound remaining at 1 uM after 30 mins by HPLC/MS/MS analysis relative to control
# Format: ADME, cell-free
# Measurement Parameters: read-out: Stability
Hi! Could you send only the number? It should be in %, unit omitted.

Exam item: Which remaining at 0.5 h, 1 µM value is on record for "Cl.Cn1c(=O)c2c(nc(N3CCC[C@@H](N)C3)n2Cc2ccccc2Cl)c2cc(C(=O)OCOC(=O)C(C)(C)C)ccc21" ?
Marked response: 73

Exam item: Next compound up: "Cl.Cn1c(=O)c2c(nc(N3CCC[C@@H](N)C3)n2Cc2ccccc2Cl)c2cc(C(=O)OCCCN3CCOCC3)ccc21"
Marked response: 7

Exam item: Next compound up: "COC(=O)c1ccc2c(c1)c1nc(N3CCC[C@@H](N)C3)n(Cc3ccccc3Cl)c1c(=O)n2C.Cl"
Marked response: 80

Exam item: Next compound up: "COC(=O)c1ccc2c3nc(N4CCC[C@@H](N)C4)n(Cc4ccccc4Cl)c3c(=O)n(C)c2c1.Cl"
Marked response: 92

* * *

# Experimental Details: Permeability of the compound at pH 5 by PAMPA
# Format: ADME
# Measurement Parameters: read-out: permeability
What Papp was measured for each of the following?
Hi! Could you send only the number? It should be in ×10⁻⁶ cm/s, unit omitted.

Exam item: Which Papp value is on record for "C[C@@H]1CN(CCOC(=O)c2ccc3c(c2)c2nc(N4CCC[C@@H](N)C4)n(Cc4ccccc4Cl)c2c(=O)n3C)C[C@H](C)O1.Cl" ?
Marked response: 10.1

Exam item: Next molecule up: "Cl.Cn1c(=O)c2c(nc(N3CCC[C@@H](N)C3)n2Cc2ccccc2Cl)c2cc(C(=O)OCOC(=O)C(C)(C)C)ccc21"
Marked response: 6.5

Exam item: Next molecule up: "Cc1oc(=O)oc1COC(=O)c1ccc2c3nc(N4CCC[C@@H](N)C4)n(Cc4ccccc4Cl)c3c(=O)n(C)c2c1.Cl"
Marked response: 12.5

Exam item: Next molecule up: "Cc1oc(=O)oc1COC(=O)c1ccc2c(c1)c1nc(N3CCC[C@@H](N)C3)n(Cc3cc(F)ccc3Cl)c1c(=O)n2C.Cl"
Marked response: 11

Exam item: Next molecule up: "COC(=O)c1ccc2c3nc(N4CCC[C@@H](N)C4)n(Cc4ccccc4Cl)c3c(=O)n(C)c2c1.Cl"
Marked response: 36.2

Exam item: Next molecule up: "Cc1oc(=O)oc1COC(=O)c1ccc2c(c1)c1nc(N3CCC[C@@H](N)C3)n(Cc3ccccc3Cl)c1c(=O)n2C.Cl"
Marked response: 10.3

* * *

# Experimental Details: Drug metabolism in human liver S9 fraction assessed as 2-(3-aminopiperidin-1-yl)-3-(2-chlorobenzyl)-5-methyl-4-oxo-4,5-dihydro-3H-imidazo[4,5-c]quinoline-8-carboxylic acid formation at 1 uM after 30 mins by HPLC/MS/MS analysis relative to control
# Type: ADME, subcellular
# Measurement Parameters: s9, 0.5 h
Quantity Measured: Drug metabolism

CN(C)CCCOC(=O)c1ccc2c(c1)c1nc(N3CCC[C@@H](N)C3)n(Cc3ccccc3Cl)c1c(=O)n2C.Cl :: metabolite_detected
Cl.Cn1c(=O)c2c(nc(N3CCC[C@@H](N)C3)n2Cc2ccccc2Cl)c2cc(C(=O)OCCN3CCOCC3)ccc21 :: metabolite_detected
COC(=O)c1ccc2c(c1)c1nc(N3CCC[C@@H](N)C3)n(Cc3ccccc3Cl)c1c(=O)n2C.Cl :: metabolite_detected

Ref: ChEMBL document CHEMBL3400032
